Test system: HUVEC
ASSAY: Cytotoxicity against HUVEC assessed as mitochondrial metabolism after 48 hrs by MTT assay
Format: cell-based, Homo sapiens
CONDITIONS USED: Homo sapiens, HUVEC
EXPERIMENTAL READOUT: IC50 (µM)
Give the number; µM is assumed, so skip it.

Give reported IC50 for Cc1ccc2c(=O)c3cccc(CC(=O)Nc4cccc(Cl)c4)c3oc2c1C (HUVEC)
11.1

Give reported IC50 for Cc1ccc2c(=O)c3cccc(CC(=O)Nc4ccc(Cl)c(Cl)c4)c3oc2c1C (HUVEC)
6.4

Give reported IC50 for Cc1ccc2c(=O)c3cccc(CC(=O)Nc4ccc(Cl)cc4)c3oc2c1C (HUVEC)
6.87
